- Tested on: NCI-H460 lung
- experiment_notes: NCI tumour cell line growth inhibition, 48 h
endpoint_label: TGI (µM)
Reply with just the number (in µM).

Example results:
>>> observed_result("CCCN1C(=O)/C(=C/c2ccc(O)cc2)SC1=Nc1ccc(OC)cc1")
66.7
>>> observed_result("Cc1cc(NNC(=O)c2ccccc2O)nc(Nc2nc3ccccc3o2)n1")
6.77

Here is another compound to look at.
Field TGI (entry `CC(=O)Oc1c(C)c2c(c3ccccc13)OC(C)(C)C2` ) reads 34.2

====

Here, each record is paired with measured TGI data.
- System: EKVX NSCLC
- experiment_notes: NCI tumour cell line growth inhibition, 48 h
Field format: number, assumed µM, no unit text.

>>> observed_result("CCN(CC)CCNc1ccc(C)c2sc3ccccc3c(=O)c12")
19.3
>>> observed_result("CCCCCCN(C)Cc1ccc(OCCOc2ccc(CN(C)CCCCCC)cc2)cc1")
15.1

Now consider the entry below.
Kindly note: EKVX NSCLC, C[C@]12CC/C(=N\OCCN3CCCCC3)C=C1CCC1C2CC[C@@]2(C)C1CC[C@]2(C)O (stereo not given in full) , TGI value reported: 44.6

====

- System: SW-620 colon
- experiment_notes: NCI tumour cell line growth inhibition, 48 h
Each entry below carries its recorded TGI.

Would you please look over these solved cases?
>>> observed_result("Cc1ccc(C2CC(c3cccc(Nc4ccncc4)c3)=NN2c2ccccc2)cc1 (stereo not given)")
"3.3 µM"
>>> observed_result("CCOC(=O)c1c2cccccc2n2c(=O)cc(C)nc12")
"> 100 µM"
>>> observed_result("O=C(NNC(=S)NCc1ccccc1)C12CC3CC(CC(C3)C1)C2")
"> 100 µM"

Param item: CCCOC1OC(CS(=O)(=O)O)C(O)C(O)C1O (stereo not given) ; param system: SW-620 colon; output TGI: > 100 µM

Item C/C=C(/C)C(=O)OC1C=C(CO)C(=O)C(OC(=O)C(C)(O)C(C)Cl)C1C(C)C (stereo not given) ; assay system SW-620 colon; TGI reported as 4.08 µM

# value of TGI, SW-620 colon, item `CC(C)(C)NC/C(=C\c1ccccc1)C(=O)c1ccccc1` = 3.5 µM

====

Parameter: GI50. Scope: all listed entries.
- System: NCI/ADR-RES ovarian
- experiment_notes: NCI tumour cell line growth inhibition, 48 h

Example molecules with recorded GI50:
>>> observed_result("COc1ccc(/C=C2\\CC(C)CC3C2=NN(c2ccccc2)C3c2ccc(OC)c(OC)c2)cc1OC (configuration not stated)")
"2710 nM"
>>> observed_result("CC[C@]12C=CCN3CC[C@@]4(c5ccc(OC)cc5N(C)[C@H]4[C@@](O)(C(=O)OC)[C@@H]1OC(=O)CCC(=O)N[C@H](Cc1c[nH]c4ccccc14)C(=O)OC)[C@@H]32")
"11300 nM"
>>> observed_result("COc1cc(-c2ccc(NC(=O)NC3CC3)c(OC)c2)ccc1NC(=O)NC1CC1")
"> 43600 nM"
>>> observed_result("CC(=O)C1CCC2C3CC=C4CC(SC(=N)N)CCC4(C)C3CCC12C (configuration not stated)")
"2000 nM"
>>> observed_result("COC(=O)c1ccc2c(c1)c1c(C)c3ccncc3c(C)c1n2C")
"411 nM"
>>> observed_result("C/C=C(/C)C(=O)OC1C=C(CO)C(=O)C(OC(=O)C(C)(O)C(C)Cl)C1C(C)C (configuration not stated)")
"2310 nM"
>>> observed_result("NC(=Nc1nc(-c2ccccn2)cc2ccccc12)c1ccccn1")
"43.4 nM"
>>> observed_result("CN1CCN(Cc2ccc(NC(=O)c3cncc(C#Cc4cnn5ccccc45)c3)cc2C(F)(F)F)CC1")
"1400 nM"
>>> observed_result("CSc1ccc(C2=NN(C(C)=O)C(c3ccc(F)cc3)C2)cc1 (configuration not stated)")
"16400 nM"
>>> observed_result("CCCN1C(=O)/C(=C/c2ccc(O)cc2)SC1=Nc1ccc(OC)cc1")
"14000 nM"

Item: `Cc1cc(NNC(=O)c2ccccc2O)nc(Nc2nc3ccccc3o2)n1` | GI50: 1300 nM

Recorded GI50 (molecule `O=C(Nc1cccc(Cl)c1)c1cc(N=Nc2ccc([N+](=O)[O-])cc2Cl)ccc1O` ): 2270 nM

Recorded result, `COc1cc2ncn(-c3cc(OCc4ccccc4C(F)(F)F)c(C(C)=O)s3)c2cc1OC` , GI50: > 25000 nM

# GI50 of `CCOC(=O)c1csc(NC(=O)COc2cccc(/C=C3\CSc4ccccc4C3=O)c2)n1` = 2460 nM

So, `O=C(Nc1nc(-c2ccc(Cl)cc2)nc2c1sc(=S)n2-c1ccccc1)C(F)(F)F` ? Its GI50 was 3580 nM

Lab book: GI50 of CC(C)CCC(=O)[C@@H](C)[C@H]1[C@@H](OC2OCC(O)C(O)C2NS(C)(=O)=O)C[C@H]2[C@@H]3CC=C4C[C@@H](O)CC[C@]4(C)[C@H]3CC[C@]12C (some centres not stated) noted as 9820 nM

Consider `COC(=O)C1=C(O)[C@H](C(=O)OC)[C@]2(O)[C@@H](C(=O)OC)[C@H]1C[C@@H](c1ccc(OC(=O)/C=C/c3ccco3)cc1)[C@@H]2C(=O)OC` . Its measured GI50 is 12300 nM

====

- Tested on: CAKI-1 renal
- experiment_notes: NCI tumour cell line growth inhibition, 48 h
Below, each entry is listed with its recorded TGI.
Give the value in µM but do not write µM after it.

Check out these entries, answers already filled in.
>>> observed_result("CC1OC(O[C@H]2CC[C@]3(C=O)[C@H]4CC[C@]5(C)[C@H](C6=CC(=O)OC6)CC[C@]5(O)[C@@H]4C=C[C@]3(O)C2)CC(O)C1O (stereo not given in full)")
0.428
>>> observed_result("C=CCc1cccc(/C=N\\N=C(/N)NO)c1O")
9.01

Next up:
Value of TGI reported for the compound `CCN(CC)CCNc1ccc(C)c2sc3ccccc3c(=O)c12` is 8.02

====

- Tested on: HCT-15 colon
- experiment_notes: NCI tumour cell line growth inhibition, 48 h; in the data active means GI50 below about 0.43 µM; inactive means the rest
Parameter call: string, one of 1 (yes) = active, 0 (no) = inactive

>>> discrete_label("Cc1cc(NNC(=O)c2ccccc2O)nc(Nc2nc3ccccc3o2)n1")
"0 (no)"
>>> discrete_label("O=C(Nc1nc(-c2ccc(Cl)cc2)nc2c1sc(=S)n2-c1ccccc1)C(F)(F)F")
"0 (no)"
>>> discrete_label("CCOC(=O)c1csc(NC(=O)COc2cccc(/C=C3\\CSc4ccccc4C3=O)c2)n1")
"0 (no)"

Can you look up the reported call for `CO[C@@H]1[C@H]2[C@@H](C)c3ccoc3C[C@@H]2[C@@]2(C)CC[C@H](OC(=O)c3ccccc3)[C@](C)(C(=O)O)[C@]2(O)[C@@H]1OC(=O)c1ccccc1` for me?
0 (no)

// outcome(item) with item = CC[C@@H](C)Nc1cc(C(=O)NC2CC3CCC(C2)N3c2ccc(C(=O)C3CC3)cn2)c(C)cc1C(N)=O (some centres not stated)
1 (yes)

Kindly provide the recorded test outcome for the following molecule: `O=C(O)Cn1c2c(c3c(O)cccc31)C(=O)c1ccccc1-2`
0 (no)

Kindly provide the recorded test outcome for the following molecule: `N#Cc1c(N)nc(N2CCSCC2)c(C#N)c1-c1ccc(O)cc1`
0 (no)

Write down the call the test reported for this molecule. Item: `O=C(NNC(=S)Nc1ccccc1)c1ccccn1`
0 (no)

How did this test come out for `COc1ccc(CNc2cnc3cc(N)cc(N)c3n2)cc1` ?
0 (no)

Called result for `C[C@@H]1CC[C@@H]2[C@@H](C)C[C@H]3[C@@H]4C(C)(C)OC(=O)[C@]4(C)C(=O)[C@@]23C1=O`
0 (no)

Please state the recorded outcome for this molecule: `CCc1nc2cc(/C=C/C(=O)NO)ccc2c(=O)n1CCc1ccc(F)cc1`
0 (no)

====

# reported TGI; entries follow
- Test system: NCI-H23 lung
- experiment_notes: NCI tumour cell line growth inhibition, 48 h

Use these answered entries as a reference point.
>>> observed_result("COc1ccc2c(-c3ccc(O)cc3)c(Oc3ccc(Cl)cc3)c(=O)oc2c1")
"8.32 µM"
>>> observed_result("O=c1nc2sc3ccc4ccccc4c3n2[nH]c1=O")
"> 100 µM"
>>> observed_result("O=c1[nH]c(=O)n(C/C=C/CBr)nc1Br")
"25.5 µM"

Looking up `O=C(Nc1nc(-c2ccc(Cl)cc2)nc2c1sc(=S)n2-c1ccccc1)C(F)(F)F` , I found its TGI recorded as 26.8 µM

TGI reported for this molecule CC1=C2[C@H](c3ccccc3)C3C=CC2(c2ccccc23)N(C(=O)C(c2ccccc2)c2ccccc2)C1=O (stereo not given in full) : > 100 µM

====

Recorded measurements of TGI, one per entry
- System: KM20L2 colon
- experiment_notes: NCI tumour cell line growth inhibition, 48 h

Here is how some compounds turned out for TGI.
>>> observed_result("Nc1ccc2c(c1)Oc1c(F)c(F)cc3c(=O)c(C(=O)O)cn-2c13")
"> 100 µM"
>>> observed_result("CC(=O)ON(C(C)=O)C1C(COC(c2ccccc2)(c2ccccc2)c2ccccc2)OC2OC3(CCCC3)OC21 (stereo not given)")
"> 100 µM"
>>> observed_result("[O-][n+]1c(-c2ccccc2)c2nc3ccccc3nc2c2ccccc21")
"> 100 µM"
>>> observed_result("CCN(CC)CCNc1ccc2nnn3c4ccccc4c(=O)c1c23")
"15.1 µM"

Measured TGI, `C/C(CCn1[nH]c(=O)ccc1=O)=N\Nc1ccc([N+](=O)[O-])cc1[N+](=O)[O-]` : > 100 µM
